Values were extracted from patent US20230047413A1.

tested.on: T1, tau phospho-peptide of the direct ELISA of Example 11
T1 construct: also called pT217 peptide; pT212/pT217 peptide
procedure.summary: direct ELISA, peptide coated
endpoint: pEC50
Kindly note that pEC50 refers to -log10 of the concentration in mol/L and answer with the value alone.

Answered cases to consult:
Query :: Annotate the binder PT3 Fab (B187) (Fab, V domains shown, Chimeric Fab: mouse variable regions, human IgG1/kappa constant region, 6xHis tag at the C-terminus of the heavy chain; also called mouse parental Fab of PT3) VH: EVKLVESGGDLVKPGGSLKLSCAASGFTFSSYAMSWVRQNPEKRLEWVASISKGGNTYYPNSVKGRFTISRDNARNILYLQMSSLRSEDTALYYCARGWGDYGWFAYWGQVTLVTVSA VL: DIKMTQSPSSMYASLGERVTITCKASQDINRYLNWFQQKPGKSPKTLIYRANRLLDGVPSRFSGSGSGQDYSLTISSLDYEDMGIYYCLQYDEFPLTFGDGTKLELK with its measured pEC50.
Result :: 9.96

Query :: Output pEC50 of B809 (antibody, human IgG1, kappa, V domains shown, also called PT1B809) VH: QVQLVESGGGVVQPGRSLRLSCAASGFTFTSYAMSWVRQAPGKGLEWVASITKGGNTYYADSVKGRFTISRDNSKNTLYLQMNSLRAEDTAVYYCARGWGIYGWFAYWGQVTLVTVSS VL: DIQMTQSPSSLSASVGDRVTITCKASQDINRYLNWFQQKPGKAPKSLIYRANRLLDGVPSRFSGSGSGTDFTLTISSLQPEDFATYYCLQYDEFPLTFGQGTKLEIKR
Result :: 10.04

Query :: Retrieve pEC50 measured for B324 (Fab of B296) (Fab, V domains shown, also called M324; B296 Fab) VH: QVQLVESGGGVVQPGRSLRLSCAASGFTFSSYAMSWVRQAPGKGLEWVASISKGGNTYYADSVKGRFTISRDNSKNTLYLQMNSLRAEDTAVYYCARGWGDYGWFAYWGQVTLVTVSS VL: DIQMTQSPSSLSASVGDRVTITCKASQDINRYLNWFQQKPGKAPKSLIYRANRLLDGVPSRFSGSGSGTDFTLTISSLQPEDFATYYCLQYDEFPLTFGQGTKLEIK and print it.
Result :: 9.47

Query :: Please report pEC50 for the following binder: B296 (antibody, human IgG1, kappa, V domains shown, Humanized PT3, human IgG1/kappa; also called VH92/VL77; HFA-PT3) VH: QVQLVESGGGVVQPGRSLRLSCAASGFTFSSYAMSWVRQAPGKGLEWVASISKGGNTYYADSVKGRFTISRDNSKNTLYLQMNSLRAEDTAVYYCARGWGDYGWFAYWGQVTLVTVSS VL: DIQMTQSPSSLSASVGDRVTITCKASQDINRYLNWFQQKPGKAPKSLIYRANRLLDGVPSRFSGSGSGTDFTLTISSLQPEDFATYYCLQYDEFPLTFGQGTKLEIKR
Result :: 9.36

Query :: Kindly indicate its recorded pEC50. Item: B333 (antibody, human IgG1, kappa, V domains shown, also called PT1B333) VH: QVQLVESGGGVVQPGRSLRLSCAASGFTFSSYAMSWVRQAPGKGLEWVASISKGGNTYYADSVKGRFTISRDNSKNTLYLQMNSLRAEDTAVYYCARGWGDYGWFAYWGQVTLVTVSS VL: DIQMTQSPSSLSASVGDRVTITCKASQDINRWLNWFQQKPGKAPKSLIYRANRLLDGVPSRFSGSGSGTDFTLTISSLQPEDFATYYCLQYDEFPLTFGQGTKLEIKR
Result :: 9.78

Query :: Retrieve pEC50 measured for B711 (antibody, human IgG1, kappa, V domains shown, also called PT1B711) VH: QVQLVESGGGVVQPGRSLRLSCAASGFTFTSYAMSWVRQAPGKGLEWVASITKGGNTYYADSVKGRFTISRDNSKNTLYLQMNSLRAEDTAVYYCARGWGIYGWFAYWGQVTLVTVSS VL: DIQMTQSPSSLSASVGDRVTITCKASQDINRWLNWFQQKPGKAPKSLIYRANRLLDGVPSRFSGSGSGTDFTLTISSLQPEDFATYYCLQYDEFPLTFGQGTKLEIKR and print it.
Result :: 10.15

---
Query :: Respond only with pEC50 recorded for B330 (Fab of B711) (Fab, V domains shown, the Fab's constant parts and tag are not described; also called M330; M333 (the Fab of B711)) VH: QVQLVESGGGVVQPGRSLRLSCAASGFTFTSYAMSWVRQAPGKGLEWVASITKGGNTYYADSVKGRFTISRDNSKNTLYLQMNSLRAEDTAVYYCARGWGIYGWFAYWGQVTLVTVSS VL: DIQMTQSPSSLSASVGDRVTITCKASQDINRWLNWFQQKPGKAPKSLIYRANRLLDGVPSRFSGSGSGTDFTLTISSLQPEDFATYYCLQYDEFPLTFGQGTKLEIK
Result :: 9.97
